Provenance of the data: paper PMC6464118

tested on: HIV-1 NL4-3 Nanoluc-sec virus; assay type: cell-based; settings: CC50 (MT4) / EC50 (NL4-3)
Listing of entries alongside the reported TI: CC50/EC50.

Sample answers from the record:
>>> value_observed("CC(=O)O[C@H]1[C@@H](OC(C)=O)[C@@]2(C)[C@@H]3CC[C@H]4C(C)(C)[C@@H](OC(=O)CC(C)C(=O)O)CC[C@@]45C[C@@]35CC[C@@]23CO[C@@]2(C(C)(C)O)CC[C@](C)(O2)[C@@H]13 (stereo partly shown) [Compound 13f]")
"> 18.0"
>>> value_observed("CC1(C)[C@@H](O[C@@H]2OC[C@@H](O)[C@H](O)[C@H]2O)CC[C@]23C[C@]24CC[C@]25CO[C@@]6(C(C)(C)O)CC[C@](C)(O6)[C@H]2[C@@H](O)[C@@H](O)[C@@]5(C)[C@@H]4CC[C@@H]13 [Compound 1a]")
"> 5.2"
>>> value_observed("CC(=O)O[C@H]1[C@@H](O)[C@@]2(C)[C@@H]3CC[C@H]4C(C)(C)[C@@H](O[C@@H]5OC[C@@H](O)[C@H](O)[C@H]5O)CC[C@@]45C[C@@]35CC[C@@]23CO[C@@]2(C(C)(C)O)CC[C@](C)(O2)[C@@H]13 [Compound 2, beesioside K]")
"> 8.6"

Report TI: CC50/EC50 for CC(=O)O[C@H]1[C@@H](OC(C)=O)[C@@]2(C)[C@@H]3CC[C@H]4C(C)(C)[C@@H](OC(C)=O)CC[C@@]45C[C@@]35CC[C@@]23CO[C@@]2(C(C)(C)O)CC[C@](C)(O2)[C@@H]13 [Compound 13a] please.
> 16.4
